biological target: Angiotensin-I Converting Enzyme from rabbit lung (Oryctolagus cuniculus, UniProt P12822); construct: Angiotensin-I Converting Enzyme from rabbit lung; purchased Sigma (Barcelona, Spain); host or cells: rabbit lung tissue; experiment: ACE-inhibitory (ACEI) activity, fluorimetric assay with o-Abz-Gly-p-Phe(NO2)-Pro substrate; assay type: biochemical; conditions: 0.5 h, 100 µM flavonoid; purified lung ACE, 37°C, 30 min; mean of three experiments (Figure 2A); read-out: percentage of ACE inhibition
Sequence (P12822 34-1310): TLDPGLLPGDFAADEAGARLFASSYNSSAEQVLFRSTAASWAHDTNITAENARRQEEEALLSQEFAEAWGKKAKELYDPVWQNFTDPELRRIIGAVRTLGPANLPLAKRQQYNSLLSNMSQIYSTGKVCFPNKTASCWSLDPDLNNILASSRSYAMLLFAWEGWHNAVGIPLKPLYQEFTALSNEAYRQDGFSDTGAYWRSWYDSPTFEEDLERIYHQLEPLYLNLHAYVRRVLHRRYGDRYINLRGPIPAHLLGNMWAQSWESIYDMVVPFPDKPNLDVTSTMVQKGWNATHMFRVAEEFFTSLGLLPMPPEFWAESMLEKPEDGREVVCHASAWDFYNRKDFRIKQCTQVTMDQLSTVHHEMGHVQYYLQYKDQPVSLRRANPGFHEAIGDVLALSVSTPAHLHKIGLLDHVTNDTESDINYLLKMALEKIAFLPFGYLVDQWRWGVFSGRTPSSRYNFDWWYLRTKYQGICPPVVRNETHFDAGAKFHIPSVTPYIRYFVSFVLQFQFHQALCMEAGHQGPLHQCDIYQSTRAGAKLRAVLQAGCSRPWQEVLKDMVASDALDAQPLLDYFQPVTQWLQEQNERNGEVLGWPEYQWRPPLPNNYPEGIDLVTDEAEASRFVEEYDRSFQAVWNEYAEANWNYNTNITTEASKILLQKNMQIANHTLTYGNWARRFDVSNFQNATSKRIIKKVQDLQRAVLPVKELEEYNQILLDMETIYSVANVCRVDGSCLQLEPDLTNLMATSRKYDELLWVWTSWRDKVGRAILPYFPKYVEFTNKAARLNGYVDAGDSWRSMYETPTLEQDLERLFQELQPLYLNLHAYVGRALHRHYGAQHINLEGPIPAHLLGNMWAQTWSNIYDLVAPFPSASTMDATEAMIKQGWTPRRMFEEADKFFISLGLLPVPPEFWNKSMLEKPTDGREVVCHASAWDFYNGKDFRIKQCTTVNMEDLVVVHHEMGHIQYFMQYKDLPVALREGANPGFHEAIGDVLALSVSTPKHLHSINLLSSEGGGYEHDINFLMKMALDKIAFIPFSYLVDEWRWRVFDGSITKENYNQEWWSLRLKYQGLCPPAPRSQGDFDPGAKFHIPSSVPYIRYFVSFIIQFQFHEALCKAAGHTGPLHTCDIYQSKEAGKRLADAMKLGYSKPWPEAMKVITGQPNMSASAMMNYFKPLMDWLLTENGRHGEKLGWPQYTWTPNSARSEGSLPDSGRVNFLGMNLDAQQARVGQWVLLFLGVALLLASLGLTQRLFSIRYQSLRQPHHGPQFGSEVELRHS
parameter: inhibition at 100 µM (%)

Sample records with inhibition at 100 µM:
>>> measured_number("C[C@@H]1O[C@@H](O[C@H]2[C@H](Oc3cc(O)c4c(c3)O[C@H](c3ccc(O)cc3)CC4=O)O[C@H](CO)[C@@H](O)[C@@H]2O)[C@H](O)[C@H](O)[C@H]1O [Naringin]")
4.5
>>> measured_number("O=C1C[C@@H](c2ccc(O)cc2)Oc2cc(O)cc(O)c21 [Naringenin]")
2.3
>>> measured_number("COc1ccc(-c2cc(=O)c3c(O)cc(O)cc3o2)cc1O [Diosmetin]")
12.5
>>> measured_number("COc1ccc(-c2cc(=O)c3c(O)cc(O[C@@H]4O[C@H](CO[C@@H]5O[C@@H](C)[C@H](O)[C@@H](O)[C@H]5O)[C@@H](O)[C@H](O)[C@H]4O)cc3o2)cc1O [Diosmin]")
9.3
>>> measured_number("O=c1cc(-c2ccc(O)cc2)oc2cc(O)cc(O)c12 [Apigenin]")
24.7

P: Oc1cc(O)c2c(c1)O[C@H](c1ccc(O)c(O)c1)[C@@H](O)C2 [Catechin]
Q: O=c1c(-c2ccc(O)cc2)coc2cc(O)cc(O)c12 [Genistein]
R: COc1ccc([C@@H]2CC(=O)c3c(O)cc(O)cc3O2)cc1O [Hesperetin]
S: Oc1cc(O)c2c(c1)O[C@H](c1ccc(O)c(O)c1)[C@H](O)C2 [Epicatechin]
input: Sort by inhibition at 100 µM, descending. Please respond with the labels ordered as the question requires.
output: Q, S, P, R
(Q: 25.7%, S: 15%, P: 7.5%, R: 0.7%)
